test.protocol: amyloid nucleation score (Sup35N fusion, yeast selection) (log enrichment); library NNK2; higher = more nucleation; inactive = no reads after selection;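 also: zero at mode of non-aggregating sequences after 7 days selection at 30°C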
Each record here notes measured amyloid nucleation score.
attribute.measured: amyloid nucleation score

[[record]]
substance = "HILMKN"
value_observed = -0.013

[[record]]
substance = "WVHGIESSRWRFGL"
value_observed = -0.474

[[record]]
substance = "HHLLVRMSMCC"
value_observed = 4.49

[[record]]
substance = "HLDPRAPSVVWTMADGEEDA"
value_observed = 0.837

[[record]]
substance = "MSYQSINKKGFVVFGRKLLA"
value_observed = -0.512

[[record]]
substance = "ENELSPRGCRGEPLA"
value_observed = 0.536

[[record]]
substance = "PKFTMVPNNGMQVGIARNKW"
value_observed = 0.43

[[record]]
substance = "SLPIVEDITGYPLRSHWG"
value_observed = 0.172

[[record]]
substance = "GVLQTARRFPVPEGN"
value_observed = 3.71

[[record]]
substance = "FLFFGVGMMCEARDAPMVAF"
value_observed = 0.073

[[record]]
substance = "YNKWLMASLPRIVGT"
value_observed = -0.47

[[record]]
substance = "GGERYHPYYDAA"
value_observed = 0.268

[[record]]
substance = "SPRSAIFSLTTQVF"
value_observed = 3.34

[[record]]
substance = "FNRKTKWAYFWLVHGRNR"
value_observed = 5.21

[[record]]
substance = "ELALGIHYPFNKLYDINKGC"
value_observed = -1.5


----------
test.protocol: amyloid nucleation score (Sup35N fusion, yeast selection) (log enrichment); library NNK3; higher = more nucleation; inactive = no reads after selection
attribute.measured: amyloid nucleation score

[[record]]
substance = "RKACYLLVI"
attribute_measured = "amyloid nucleation score"
value_observed = "inactive"

[[record]]
substance = "IYDAGFVYQIGTEEQVCNRV"
attribute_measured = "amyloid nucleation score"
value_observed = "inactive"

[[record]]
substance = "APGCGTNLGMIFALGWALWR"
attribute_measured = "amyloid nucleation score"
value_observed = "inactive"

[[record]]
substance = "CIRVTMSNMMVESWVYGDKP"
attribute_measured = "amyloid nucleation score"
value_observed = 0.586

[[record]]
substance = "NVRTLNSLDDLGVSFSSACT"
attribute_measured = "amyloid nucleation score"
value_observed = "inactive"

[[record]]
substance = "WVFLNRAQQHSNVLPSQGLV"
attribute_measured = "amyloid nucleation score"
value_observed = "inactive"

[[record]]
substance = "WTSQVMRMDKTQVTGRDRVA"
attribute_measured = "amyloid nucleation score"
value_observed = "inactive"

[[record]]
substance = "HLLTAVILITIGVNRVTWWG"
attribute_measured = "amyloid nucleation score"
value_observed = "inactive"

[[record]]
substance = "VYRYFASKIIKGIFSRCCTF"
attribute_measured = "amyloid nucleation score"
value_observed = "inactive"

[[record]]
substance = "RTVKNSRLGTMIVY"
attribute_measured = "amyloid nucleation score"
value_observed = "inactive"

[[record]]
substance = "NICCHISKSRPYQVYFSLQL"
attribute_measured = "amyloid nucleation score"
value_observed = "inactive"

[[record]]
substance = "NWCLVYRPVKL"
attribute_measured = "amyloid nucleation score"
value_observed = 1.54

[[record]]
substance = "CQWANY"
attribute_measured = "amyloid nucleation score"
value_observed = -0.508

[[record]]
substance = "YTYQTLLADLNKGFMYSRRW"
attribute_measured = "amyloid nucleation score"
value_observed = "inactive"

[[record]]
substance = "FVQGYSFWYWVETYMFIRFV"
attribute_measured = "amyloid nucleation score"
value_observed = "inactive"

[[record]]
substance = "DEIPCDVRGLMPTRVSTLNL"
attribute_measured = "amyloid nucleation score"
value_observed = "inactive"

[[record]]
substance = "SKSARVLSFYYPYFFISINL"
attribute_measured = "amyloid nucleation score"
value_observed = "inactive"

[[record]]
substance = "RECDFFLWAYYLVNIQLRVQ"
attribute_measured = "amyloid nucleation score"
value_observed = -0.27

[[record]]
substance = "HWGTMNGSPSFFPITVRCGG"
attribute_measured = "amyloid nucleation score"
value_observed = "inactive"

[[record]]
substance = "WGSMMSWQVKFVSILNPLPR"
attribute_measured = "amyloid nucleation score"
value_observed = "inactive"

[[record]]
substance = "VNRKEIRHVRLLCPSRGSVA"
attribute_measured = "amyloid nucleation score"
value_observed = -0.091

[[record]]
substance = "WGNISGSA"
attribute_measured = "amyloid nucleation score"
value_observed = "inactive"

[[record]]
substance = "AFSFMLACWQRRIAQALAYL"
attribute_measured = "amyloid nucleation score"
value_observed = "inactive"

[[record]]
substance = "LTGACVLNR"
attribute_measured = "amyloid nucleation score"
value_observed = 0.106

[[record]]
substance = "SYYTISLRMSFTTYFCLKMS"
attribute_measured = "amyloid nucleation score"
value_observed = 0.665

[[record]]
substance = "LMKFFINVKVSGGVTCVRIN"
attribute_measured = "amyloid nucleation score"
value_observed = "inactive"

[[record]]
substance = "LQSCSCAGLFPDL"
attribute_measured = "amyloid nucleation score"
value_observed = "inactive"

[[record]]
substance = "VNHKFKSSFFNNH"
attribute_measured = "amyloid nucleation score"
value_observed = -0.27

[[record]]
substance = "ILYRCDCAFFYPLGLLFSRC"
attribute_measured = "amyloid nucleation score"
value_observed = "inactive"

[[record]]
substance = "LDLIRY"
attribute_measured = "amyloid nucleation score"
value_observed = "inactive"

[[record]]
substance = "NIMVVYPFFYGFKHNWLESI"
attribute_measured = "amyloid nucleation score"
value_observed = "inactive"

[[record]]
substance = "QWCCVTRFIGYSKGYGRKAP"
attribute_measured = "amyloid nucleation score"
value_observed = "inactive"

[[record]]
substance = "GRQYVCYYTFLKLYWLKSMW"
attribute_measured = "amyloid nucleation score"
value_observed = "inactive"

[[record]]
substance = "RGIDYSHTL"
attribute_measured = "amyloid nucleation score"
value_observed = "inactive"

[[record]]
substance = "KPCHASVET"
attribute_measured = "amyloid nucleation score"
value_observed = "inactive"

[[record]]
substance = "ILNYLRENCQKVTGRGA"
attribute_measured = "amyloid nucleation score"
value_observed = -0.679

[[record]]
substance = "YTGSMAGSTYLTGKLSLDDR"
attribute_measured = "amyloid nucleation score"
value_observed = "inactive"

[[record]]
substance = "VDWNRTFEIKSVEGDVKGAL"
attribute_measured = "amyloid nucleation score"
value_observed = "inactive"

[[record]]
substance = "SVASRTSEGTGYSCIIRVFH"
attribute_measured = "amyloid nucleation score"
value_observed = "inactive"

[[record]]
substance = "ANDVISYTFFLSEERG"
attribute_measured = "amyloid nucleation score"
value_observed = "inactive"

[[record]]
substance = "KKYLTNVDLNVSN"
attribute_measured = "amyloid nucleation score"
value_observed = "inactive"

[[record]]
substance = "QTVKHIKICGVCWVSMLMF"
attribute_measured = "amyloid nucleation score"
value_observed = 2.07

[[record]]
substance = "QIPSGVVCGMNGYCLGAVTR"
attribute_measured = "amyloid nucleation score"
value_observed = "inactive"

[[record]]
substance = "FCLVGIFTCRGTLNTLLALH"
attribute_measured = "amyloid nucleation score"
value_observed = "inactive"

[[record]]
substance = "GFYLVVKTINGFPNNLKWMA"
attribute_measured = "amyloid nucleation score"
value_observed = 0.296

[[record]]
substance = "ARSDGA"
attribute_measured = "amyloid nucleation score"
value_observed = "inactive"

[[record]]
substance = "NMFRFLMCSSTRHYVRIMTN"
attribute_measured = "amyloid nucleation score"
value_observed = "inactive"

[[record]]
substance = "CDTSCWLLSTPLADWTIAFN"
attribute_measured = "amyloid nucleation score"
value_observed = "inactive"

[[record]]
substance = "IVKTPVCSVTRRYPFSDRLL"
attribute_measured = "amyloid nucleation score"
value_observed = "inactive"

[[record]]
substance = "WLHFCHSAPSEYFVIMRMCK"
attribute_measured = "amyloid nucleation score"
value_observed = "inactive"

[[record]]
substance = "LWRIILWPFVTWSDMMFFQF"
attribute_measured = "amyloid nucleation score"
value_observed = -0.076

[[record]]
substance = "NIISNDLSEASIYNGFVCNR"
attribute_measured = "amyloid nucleation score"
value_observed = "inactive"

[[record]]
substance = "RKLFGSHS"
attribute_measured = "amyloid nucleation score"
value_observed = "inactive"

[[record]]
substance = "YFEYRPKMHHYSLCYMGEFS"
attribute_measured = "amyloid nucleation score"
value_observed = "inactive"

[[record]]
substance = "VTQATWLGRIYLLLAPA"
attribute_measured = "amyloid nucleation score"
value_observed = "inactive"

[[record]]
substance = "LVVLIFYYV"
attribute_measured = "amyloid nucleation score"
value_observed = "inactive"

[[record]]
substance = "YTMLFLLLSWNVFFISWCCF"
attribute_measured = "amyloid nucleation score"
value_observed = "inactive"

[[record]]
substance = "TICQADSRSSFQGLDCRRVR"
attribute_measured = "amyloid nucleation score"
value_observed = -1.01

[[record]]
substance = "MYLNNFAWRVTVWNIFVHAL"
attribute_measured = "amyloid nucleation score"
value_observed = 0.512

[[record]]
substance = "SWYEYCLINSLRKGSGYKEP"
attribute_measured = "amyloid nucleation score"
value_observed = "inactive"

[[record]]
substance = "GAWVTATWAFDAVLFCPGKM"
attribute_measured = "amyloid nucleation score"
value_observed = "inactive"

[[record]]
substance = "DIIVKQLPKRYGPTMSIRNM"
attribute_measured = "amyloid nucleation score"
value_observed = -0.057

[[record]]
substance = "GFYRLVVQGLVVSRGLNWCV"
attribute_measured = "amyloid nucleation score"
value_observed = "inactive"

[[record]]
substance = "IFLKHIPRHSSSKTMTANCP"
attribute_measured = "amyloid nucleation score"
value_observed = "inactive"

[[record]]
substance = "ISSNTGFCPAVMLGIPFFRI"
attribute_measured = "amyloid nucleation score"
value_observed = "inactive"

[[record]]
substance = "IMEIMVNTWGNVTVRNSWRL"
attribute_measured = "amyloid nucleation score"
value_observed = 1.23

[[record]]
substance = "VFRLLVDKYCGFSPVGLPDV"
attribute_measured = "amyloid nucleation score"
value_observed = "inactive"

[[record]]
substance = "LIWIVVGLSCYSTRL"
attribute_measured = "amyloid nucleation score"
value_observed = 1.09

[[record]]
substance = "LCISVPNFSLAFLSLGWLCK"
attribute_measured = "amyloid nucleation score"
value_observed = "inactive"

[[record]]
substance = "SQLKMSYRHYPMMMCVIVFS"
attribute_measured = "amyloid nucleation score"
value_observed = "inactive"

[[record]]
substance = "FVYFKLGVMSPLQTTNTHLS"
attribute_measured = "amyloid nucleation score"
value_observed = 0.804

